system: T1, human GIP receptor (human, UniProt P48546 22-466)
T1 sequence (looked up): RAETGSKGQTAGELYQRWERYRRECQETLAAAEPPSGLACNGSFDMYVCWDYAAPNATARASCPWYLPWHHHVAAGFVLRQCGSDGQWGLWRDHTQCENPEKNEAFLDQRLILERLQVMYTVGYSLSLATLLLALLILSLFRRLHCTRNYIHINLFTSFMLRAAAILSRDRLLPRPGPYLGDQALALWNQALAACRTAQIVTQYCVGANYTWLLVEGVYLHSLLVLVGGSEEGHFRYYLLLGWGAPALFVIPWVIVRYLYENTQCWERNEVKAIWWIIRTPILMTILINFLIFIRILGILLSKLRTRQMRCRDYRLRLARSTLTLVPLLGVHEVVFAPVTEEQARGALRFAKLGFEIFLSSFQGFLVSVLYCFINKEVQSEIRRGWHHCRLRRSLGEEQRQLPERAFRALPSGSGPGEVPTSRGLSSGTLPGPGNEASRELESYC
method: cell-based or functional assay
quantity: cAMP EC50
Include the unit right after the number.

* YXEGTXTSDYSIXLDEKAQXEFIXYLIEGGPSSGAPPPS (Aib2; αMeF(2F)6; αMeL13; K17((2-[2-(2-Amino-ethoxy)-ethoxy]-acetyl)2-(γ-Glu)-CO-(CH2)18-CO2H); Aib20; D-Glu24; C-terminal amide) [Example 1] | 38.5 nM

Return cAMP EC50 (reported value) for this binder: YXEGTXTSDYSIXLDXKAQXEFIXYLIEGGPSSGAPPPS (Aib2; αMeF(2F)6; αMeL13; Orn16; K17((2-[2-(2-Amino-ethoxy)-ethoxy]-acetyl)2-(γ-Glu)-CO-(CH2)16-CO2H); Aib20; D-Glu24; C-terminal amide) [Example 2] 2.64 nM

Return cAMP EC50 (reported value) for this binder: YXEGTXTSDXSIXLDXKAQXEFIXXLIEGGPSSGAPPPS (Aib2; αMeF(2F)6; 4Pal10; αMeL13; Orn16; K17((2-[2-(2-Amino-ethoxy)-ethoxy]-acetyl)2-(γ-Glu)-CO-(CH2)16-CO2H); Aib20; D-Glu24; αMeY25; C-terminal amide) [Example 4] 1.03 nM

Return cAMP EC50 (reported value) for this binder: YXEGTXTSDVSIXLDXKAQXEFIXXLIEGGPSSGAPPPS (Aib2; αMeF(2F)6; αMeL13; Orn16; K17((2-[2-(2-Amino-ethoxy)-ethoxy]-acetyl)2-(γ-Glu)-CO-(CH2)16-CO2H); Aib20; D-Glu24; αMeY25; C-terminal amide) [Example 5] 1.98 nM

Return cAMP EC50 (reported value) for this binder: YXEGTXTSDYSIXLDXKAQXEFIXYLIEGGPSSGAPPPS (Aib2; αMeF(2F)6; αMeL13; Orn16; K17((2-[2-(2-Amino-ethoxy)-ethoxy]-acetyl)2-(γ-Glu)-CO-(CH2)18-CO2H); Aib20; D-Glu24; C-terminal amide) [Example 3] 9.24 nM
